B1: VH:VL chains; a variant is named by its letters at X, in order (parent)
chain 1: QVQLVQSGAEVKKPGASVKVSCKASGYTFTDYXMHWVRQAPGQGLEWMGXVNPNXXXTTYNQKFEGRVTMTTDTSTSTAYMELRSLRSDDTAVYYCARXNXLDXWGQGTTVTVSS
chain 2: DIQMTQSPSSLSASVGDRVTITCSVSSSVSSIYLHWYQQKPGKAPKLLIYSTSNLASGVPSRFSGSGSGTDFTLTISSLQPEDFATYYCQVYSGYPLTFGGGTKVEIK

variants of: B1; test: yeast display scFab, FACS + sequencing
measure: non-specific binding call

Some variants with known non-specific binding call results, for comparison:
     change    observed
0  YRERGSAD       binds
1  YRKGGAVV       binds
2  DKEGGDGV  no binding
3  YTRGAAGV  no binding
4  YRTRDSVA  no binding
5  YAKEGDGV  no binding
6  DAGGGDVA  no binding
7  VGGTDFVA  no binding

[ask] # lookup: non-specific binding call of "YAGRGVGD"
[reply] binds

[ask] Another variant to look at: "VTTGGDGV"
[reply] no binding

[ask] Another variant to look at: "VKAGGDGS"
[reply] no binding

[ask] Another variant to look at: "YRRGGSWD"
[reply] binds

[ask] Another variant to look at: "YKAKGAAD"
[reply] binds

[ask] Another variant to look at: "DRAGDDSA"
[reply] no binding

[ask] Another variant to look at: "YTGKSVAV"
[reply] binds

[ask] Another variant to look at: "VTAGDDGV"
[reply] no binding

[ask] Another variant to look at: "VREGSSAA"
[reply] binds

[ask] Another variant to look at: "YRGRASGA"
[reply] binds

[ask] Another variant to look at: "SEARSDGY"
[reply] no binding

[ask] Another variant to look at: "YRARSAAD"
[reply] binds

[ask] Another variant to look at: "YRRGGAAA"
[reply] binds

[ask] Another variant to look at: "YRAGAAVA"
[reply] binds

Data origin, for the record: the emibetuzumab library of Makowski et al. (2022)
